- procedure-summary: Metabolic stability in liver S9 fraction (unknown origin) assessed as parent compound remaining incubated for 10 mins
- Assay type: ADME, subcellular
- conditions: human, read-out: Stability
Listed here are compounds together with their documented remaining at 10 min.
measurement-kind: remaining at 10 min (%)

smiles-repr: Cc1ccc(NC(=O)CCc2nnc(CCCC(C)C)n2C2CC2)c(C)c1
reported-result: 67

smiles-repr: Cc1ccc(NC(=O)[C@H]2C[C@@H](O)C[C@@H]2c2nnc([C@H]3C[C@@H](CC(C)C)C3)n2C2CC2)c(C)c1
reported-result: 87

smiles-repr: Cc1ccc(NC(=O)CCc2nnc(-c3cc(CC(C)C)on3)n2C2CC2)c(C)c1
reported-result: 83

smiles-repr: Cc1ccc(NC(=O)CCc2nnc(CCC3CCCCC3)n2C2CC2)c(C)c1
reported-result: 55

smiles-repr: Cc1ccc(NC(=O)CCc2nnc(-c3ccc(CC(C)C)cc3)n2C2CC2)c(C)c1
reported-result: 84
